biological target: recombinant human HGF (R&D Systems, Catalog No. 294-HGN-025) (human, UniProt P14210 32-728); experiment: cell-based or functional assay
Sequence (P14210 32-728 limits assumed): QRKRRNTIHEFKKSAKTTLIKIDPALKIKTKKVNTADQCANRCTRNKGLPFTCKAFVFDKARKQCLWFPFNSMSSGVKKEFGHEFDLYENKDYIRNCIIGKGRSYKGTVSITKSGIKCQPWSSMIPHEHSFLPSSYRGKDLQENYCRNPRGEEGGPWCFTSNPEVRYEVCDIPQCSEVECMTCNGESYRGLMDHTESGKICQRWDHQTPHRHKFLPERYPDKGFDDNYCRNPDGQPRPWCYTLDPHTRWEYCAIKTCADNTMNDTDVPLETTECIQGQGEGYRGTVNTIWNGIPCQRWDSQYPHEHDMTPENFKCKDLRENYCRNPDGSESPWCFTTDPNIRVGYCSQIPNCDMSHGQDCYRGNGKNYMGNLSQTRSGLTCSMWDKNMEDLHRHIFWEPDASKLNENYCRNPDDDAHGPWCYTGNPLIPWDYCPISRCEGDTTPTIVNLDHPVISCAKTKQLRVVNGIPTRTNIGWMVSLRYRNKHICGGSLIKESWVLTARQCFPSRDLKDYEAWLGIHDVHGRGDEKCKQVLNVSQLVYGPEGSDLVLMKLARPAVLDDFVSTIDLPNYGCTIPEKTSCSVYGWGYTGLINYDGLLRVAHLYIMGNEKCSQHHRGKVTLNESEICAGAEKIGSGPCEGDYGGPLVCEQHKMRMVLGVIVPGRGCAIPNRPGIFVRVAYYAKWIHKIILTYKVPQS
This listing pairs binders with measured IC50 (nM), HGF stimulated BrdU incorporation in 4MBr-5 cells.
Report as a plain number; the unit nM is understood.

[[record]]
binder = "anti-hHGF monoclonal antibody 1D3 (antibody, mouse IgG1, kappa, V domains shown) VH: EVQLVESGGGLVQPGGSLKLSCAASGFTFSDYYMSWVRQTPEKRLEWVAYISSGGGSTYYPDSVKGRFTISRDNAKNTLYLQMSSLKSEDTAIYYCVRQGDGYYGDYAMDYWGQGTSVIVSS VL: DIQMTQSPASLSVSVGETVTITCRTSENIYSNLAWYQQKQGKSPQLLIYAATNLADGVPSRFSGSGSGTQFSLRINSLQSEDFGRYYCQHFWGTPYTFGGGTKLEIKR"
result_value = 4.99


Complete the entry with IC50 (nM), HGF stimulated BrdU incorporation in 4MBr-5 cells for anti-hHGF monoclonal antibody 3A12 (antibody, mouse IgG1, kappa, V domains shown) VH: EVQLVESGGGLVQPGGSLKISCAASGFTFSNYFMSWVRQTPEKRLEWVAYISSGGGSTYYPDSVKGRFTISRDNAKNTLYLQMNSLKSEDTAMYYCVRQGDGYYGDYAMDYWGQGTSVTVSS VL: DIQMTQSPASLSVSVGETVTITCRASENIYINLAWYQQKQGKSPQLLVHAATKLADGVPSRFSGSGSGTQYSLKINSLQSEDFGSYYCQHFWGTPYTFGGGTKLEIKR
30.3

Quote IC50 (nM), HGF stimulated BrdU incorporation in 4MBr-5 cells reported for anti-hHGF monoclonal antibody 1A3 (antibody, mouse IgG1, kappa, V domains shown) VH: EVQLVESGGGLVQPGGSLKLSCAASEFTFSNYYMSWVRQTPEKRLQWVAYISPGGGSSYYPASVKGRFTISRDNAKNTLYLQMSSLKSEDTAMYYCARQGDGYYGDYAMDYWGQGTSVTVSS VL: DIQMTQSPASLSVSVGETVTITCRASENIYSNLAWYQQKQGKSPQLLVYAATNLADGVPSRFSGSGSGTQFSLKINSLQSEDFGTYYCQHFWGTPYTFGGGTKLEIKR please.
4.69

Could you please provide reported IC50 (nM), HGF stimulated BrdU incorporation in 4MBr-5 cells for anti-hHGF monoclonal antibody 2F8 (antibody, mouse IgG1, kappa, V domains shown) VH: QVQLKQSGAELVRPGTSVKMSCKASGYTFTTYYIHWVNQRPGQGLEWIGKIGPGSGSTYYNEMFKDKATLTVDTSSSTAYMQLSSLTSDDSAVYFCARRGLGRGFDYWGQGTTLTVSS VL: DIVLTQSPASLAVSLGQRATISCKASQSVDYDGNSYINWYQQKPGQPPKVLIYVASNLESGIPARFSGSGSGTDFTLNIHPVEEEDAATYYCQQSIEDPPTFGAGTKLELKR ? Thanks!
19.2
